The reported measurements were obtained from patent US20250091992A1.

- experimental system: human serotonin transporter (Homo sapiens, UniProt P31645);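 further: Read-out: uptake of tritium-labelled serotonin, measured by scintillation counting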
- Sequence (P31645 whole entry): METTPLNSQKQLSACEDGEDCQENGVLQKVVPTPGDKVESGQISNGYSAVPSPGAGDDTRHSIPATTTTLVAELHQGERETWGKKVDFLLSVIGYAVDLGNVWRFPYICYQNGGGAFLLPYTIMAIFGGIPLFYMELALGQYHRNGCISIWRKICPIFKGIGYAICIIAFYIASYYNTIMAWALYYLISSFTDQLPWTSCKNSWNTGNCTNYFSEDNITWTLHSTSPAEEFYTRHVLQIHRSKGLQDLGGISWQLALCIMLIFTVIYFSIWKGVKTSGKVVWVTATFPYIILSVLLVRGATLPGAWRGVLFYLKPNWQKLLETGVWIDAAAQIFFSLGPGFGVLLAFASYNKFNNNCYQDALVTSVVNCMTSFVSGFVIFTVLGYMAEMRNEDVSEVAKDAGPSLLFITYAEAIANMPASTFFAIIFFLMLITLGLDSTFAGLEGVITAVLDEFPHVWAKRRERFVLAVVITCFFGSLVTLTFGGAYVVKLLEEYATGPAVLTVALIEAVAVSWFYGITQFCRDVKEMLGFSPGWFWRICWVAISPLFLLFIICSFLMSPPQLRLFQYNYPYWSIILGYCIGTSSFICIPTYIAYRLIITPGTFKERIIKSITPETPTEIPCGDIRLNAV
Lab note: anything with IC50 below 800 nM is marked 1 (yes); values at 800 nM or higher are marked 0 (no).

Before answering, review these 3 worked examples.
CCOc1ccc([C@@]23CCC(=O)C[C@@H]2N(C)CC3)cc1OC1CCCC1 :: 1 (yes)
COc1cc([C@@]23CCC(=O)C[C@@H]2N(C)CC3)ccc1OCC1CC1 :: 0 (no)
CCOc1cc([C@@]23CCC(=O)C[C@@H]2N(C)CC3)ccc1OCC1CC1 :: 1 (yes)

// next entry
IC50 strictly < 800 nM for this compound? `COc1ccc([C@@]23CCC(=O)C[C@@H]2N(C)CC3)cc1O`
1 (yes)

---

Parameter: half-life. Scope: all listed entries.
- experiment: in vivo
- Design: species or system male C57Bl/6J mice
- stated conditions: male, C57Bl/6J, mouse, ip, 30 mg/kg
Could you give me the number in min? Just the number is fine.

For orientation, consider the following solved cases.
COc1ccc([C@@]23CCC(=O)C[C@@H]2N(C)CC3)cc1OC1CCCC1 :: 56.4
CCOc1ccc([C@@]23CCC(=O)C[C@@H]2N(C)CC3)cc1OCC :: 34.2
CCOc1ccc([C@@]23CCC(=O)C[C@@H]2N(C)CC3)cc1OCC1CC1 :: 76.8
CCOc1ccc([C@@]23CCC(=O)C[C@@H]2N(C)CC3)cc1OC1CCCC1 :: 58.2
C=CCOc1cc([C@@]23CCC(=O)C[C@@H]2N(C)CC3)ccc1OC :: 40.2

Now examine the next entry.
Query: half-life; subject: `CCOc1cc([C@@]23CCC(=O)C[C@@H]2N(C)CC3)ccc1OC`
33.6

---

Below, each of the compounds is paired with its reported inhibition at 3 µM value.
- experimental system: hSERT (Homo sapiens)
- Construct: expressed in transfected cells
- experiment: SERT assay (Compounds of Formula II), transporter uptake assay kit
- Type: cell-based
- Experimental: SERT assays were performed using a standard transporter uptake assay kit, (Molecular devices, (R8174)). In short, test compounds (10 nM-30 μM), reference compound or vehicle control were added to cells stably expressing hSERT (20,000/well) in assay buffer containing HBSS (20 mM) and BSA (0.1% (w/v)) for 30 mins at 30° C. Assay plates were incubated in the presence of dye for a further 60 mins at 37° C. and intracellular fluorescence intensity was determined.
Note: state the figure and append the unit.

COc1ccc([C@@]23CC[C@@H](OC(=O)c4ccccc4)C[C@@H]2N(C)CC3)cc1OC :: 91%
COc1ccc([C@@]23C=C[C@@H](OC(=O)CCC(=O)O)C[C@@H]2N(C)CC3)cc1OC :: 98%
COc1ccc([C@@]23C=C[C@@H](OC(=O)CCCC(=O)O)C[C@@H]2N(C)CC3)cc1OC :: 97%
COc1ccc([C@@]23CC[C@@H](OC(=O)C(C)C)C[C@@H]2N(C)CC3)cc1OC :: 98%
COc1ccc([C@@]23CC[C@@H](OC(=O)CN)C[C@@H]2N(C)CC3)cc1OC :: 101%
COc1ccc([C@@]23C=C[C@@H](OC(=O)c4ccc[nH]4)C[C@@H]2N(C)CC3)cc1OC :: 106%
COc1ccc([C@@]23C=C[C@@H](OC(=O)C(C)C)C[C@@H]2N(C)CC3)cc1OC :: 97%

Moving on to another compound below.
Can you share its inhibition at 3 µM? I mean this compound: COc1ccc([C@@]23C=C[C@@H](OC(=O)C(C)N)C[C@@H]2N(C)CC3)cc1OC (some centres unmarked)
97%
